B1: Osa-1-4 twister ribozyme (parent)
chain: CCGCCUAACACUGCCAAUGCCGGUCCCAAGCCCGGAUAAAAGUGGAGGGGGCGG

# Variants of: B1
# experiment notes: self-cleavage, relative activity (ratio to wild type); higher = more cleavage; co-transcriptional
Each record here notes measured self-cleavage.
property: self-cleavage

> print(dat)
    variant.identifier       property  readout.number
 1           A36G C21G  self-cleavage             0.1
 2           G49U U37G  self-cleavage             0.3
 3           G44A G47A  self-cleavage            0.13
 4           A28C A29G  self-cleavage            0.16
 5           C32G U37G  self-cleavage            0.19
 6           C32G G54A  self-cleavage            0.15
 7           C27U C33A  self-cleavage            0.05
 8           A46U G30A  self-cleavage            0.02
 9           G34A G42C  self-cleavage            0.08
10            A8G G34A  self-cleavage            0.27
11           C20U C26A  self-cleavage            0.08
12           G23C U43G  self-cleavage            0.06
13            C27G C9U  self-cleavage            0.05
14           C25G G47U  self-cleavage            0.03
15           C14U C33G  self-cleavage            0.03
16            A10G A7C  self-cleavage            0.06
17           A41U A46C  self-cleavage            0.06
18           A39G G42C  self-cleavage            0.16
19            A17U A7U  self-cleavage            0.09
20            A7U U18A  self-cleavage            0.11
21           G23C U43C  self-cleavage            0.05
22           C11G G47U  self-cleavage            0.04
23           G22U G50A  self-cleavage            0.91
24           G34U G48A  self-cleavage            0.07
25           C15G G30C  self-cleavage            0.03
26            A39G A8C  self-cleavage            0.08
27            A7C C31G  self-cleavage            0.02
28           A10G A29U  self-cleavage            0.07
29           A41G U37A  self-cleavage            0.86
30           A40G A46C  self-cleavage            0.06
31           G35C G54U  self-cleavage            0.36
32            A10U A7G  self-cleavage            0.08
33           A17U U18G  self-cleavage            0.87
34           C14U G53A  self-cleavage            0.11
35           G22A G30U  self-cleavage            0.05
36           A46G G50U  self-cleavage            0.06
37            A7U G54C  self-cleavage            0.06
38           C21A G51C  self-cleavage            0.07
39           G44A G49A  self-cleavage            0.07
40           C21G U43G  self-cleavage            0.08
41           G30U G35A  self-cleavage            0.04
42            A38C A7U  self-cleavage            0.08
43           A28U A40G  self-cleavage            0.24
44           A41G C20U  self-cleavage            0.85
45           A41C U43A  self-cleavage            0.45
46            C9U U43A  self-cleavage            0.68
47            A7U G50U  self-cleavage            0.07
48           A38G C14A  self-cleavage            0.07
49           A39U G53A  self-cleavage            0.49
50           C27G G45C  self-cleavage            0.03
51            A29G A8U  self-cleavage            0.07
52           A10C A39G  self-cleavage            0.06
53           G22C G34U  self-cleavage            0.05
54           A10C A40C  self-cleavage            0.03
55           A17U U24A  self-cleavage             0.3
56           C14U G51A  self-cleavage            0.12
57           G35A U18G  self-cleavage            0.79
58            C9U U18C  self-cleavage            0.53
59           A41G G51A  self-cleavage            0.41
60           A39U A46C  self-cleavage            0.05
61           C20A G51C  self-cleavage            0.28
62           G35A G53C  self-cleavage            0.08
63            C15A C9U  self-cleavage            0.19
64           G34C G54U  self-cleavage            0.25
65           G23U G34C  self-cleavage            0.04
66           G23A U18A  self-cleavage            0.59
67                U12G  self-cleavage            0.55
68           A40U G49U  self-cleavage            0.08
69           A29U C26G  self-cleavage            0.05
70           G50U G53C  self-cleavage            0.09
71           A36G G35C  self-cleavage            0.93
72           C21G G42U  self-cleavage            0.02
73            C9G G49A  self-cleavage            0.09
74           C11U U12G  self-cleavage            0.37
75           A10C G22U  self-cleavage            0.03
76           A38G G53A  self-cleavage             0.8
77           A46U G22A  self-cleavage            0.09
78           A36G U43G  self-cleavage            0.64
79           A10U G53C  self-cleavage            0.02
80           A16U C31A  self-cleavage            0.03
